biological target: Ephrin type-B receptor 4 (Homo sapiens, UniProt P54760); test: Inhibition of EphB4 in human HeLa cells lysate pre incubated for 15 mins followed by ATP acyl phosphate probe addition and measured after 10 mins by LC-MS/MS analysis; format: subcellular
Sequence (P54760 whole entry): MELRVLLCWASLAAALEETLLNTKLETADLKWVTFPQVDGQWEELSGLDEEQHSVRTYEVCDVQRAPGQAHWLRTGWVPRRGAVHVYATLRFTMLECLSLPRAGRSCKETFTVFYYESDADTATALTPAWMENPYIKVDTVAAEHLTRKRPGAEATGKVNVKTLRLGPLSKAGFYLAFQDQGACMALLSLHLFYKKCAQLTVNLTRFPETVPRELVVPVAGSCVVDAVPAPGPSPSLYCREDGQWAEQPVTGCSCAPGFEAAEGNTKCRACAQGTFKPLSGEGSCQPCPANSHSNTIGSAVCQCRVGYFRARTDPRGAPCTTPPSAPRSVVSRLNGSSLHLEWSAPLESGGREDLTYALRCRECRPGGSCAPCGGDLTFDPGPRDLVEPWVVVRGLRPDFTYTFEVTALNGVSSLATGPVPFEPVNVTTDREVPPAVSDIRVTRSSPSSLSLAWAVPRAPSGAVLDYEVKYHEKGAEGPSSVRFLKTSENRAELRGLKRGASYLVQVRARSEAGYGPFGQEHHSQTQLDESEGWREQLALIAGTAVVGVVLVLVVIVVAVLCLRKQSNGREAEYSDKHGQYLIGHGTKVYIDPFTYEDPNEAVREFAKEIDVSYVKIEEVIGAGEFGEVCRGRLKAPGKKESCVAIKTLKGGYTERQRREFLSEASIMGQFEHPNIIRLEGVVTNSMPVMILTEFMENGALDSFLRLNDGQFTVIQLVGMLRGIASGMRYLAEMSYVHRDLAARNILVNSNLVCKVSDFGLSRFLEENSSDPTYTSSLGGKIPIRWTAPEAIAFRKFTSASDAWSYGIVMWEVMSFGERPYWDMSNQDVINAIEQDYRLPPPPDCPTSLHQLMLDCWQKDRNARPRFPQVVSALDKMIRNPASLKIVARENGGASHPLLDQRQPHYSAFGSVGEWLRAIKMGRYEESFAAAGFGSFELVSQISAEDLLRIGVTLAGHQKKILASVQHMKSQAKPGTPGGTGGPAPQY
pIC50: −log10 of the molar value.

givenSmiles	pIC50
CCOc1cc(N2CCC(O)CC2)ccc1Nc1ncc2c(n1)N(C)c1ccccc1C(=O)N2C	< 4.30

----------
target: Cyclin-dependent kinase 1 (Homo sapiens, UniProt P06493); assay: Inhibition of CDC2 in human HeLa cells lysate pre incubated for 15 mins followed by ADP acyl phosphate probe addition and measured after 10 mins by LC-MS/MS analysis
Sequence (P06493 whole entry): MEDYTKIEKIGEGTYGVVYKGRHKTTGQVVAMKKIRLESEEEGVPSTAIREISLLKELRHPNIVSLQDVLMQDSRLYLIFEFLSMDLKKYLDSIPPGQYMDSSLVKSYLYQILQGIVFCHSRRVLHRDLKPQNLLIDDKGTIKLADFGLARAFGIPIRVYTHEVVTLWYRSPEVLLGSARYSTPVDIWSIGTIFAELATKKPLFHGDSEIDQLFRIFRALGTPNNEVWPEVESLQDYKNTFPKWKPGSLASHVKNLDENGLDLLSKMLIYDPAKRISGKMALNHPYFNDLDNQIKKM
pIC50: −log10 of the molar value.

givenSmiles	tgt	pIC50
CCOc1cc(N2CCC(O)CC2)ccc1Nc1ncc2c(n1)N(C)c1ccccc1C(=O)N2C	Cyclin-dependent kinase 1 (Homo sapiens, UniProt P06493)	< 4.30

----------
biological target: Cyclin-dependent kinase 9 (Homo sapiens); experiment: Inhibition of CDK9 in human HeLa cells lysate pre incubated for 15 mins followed by ATP acyl phosphate probe addition and measured after 10 mins by LC-MS/MS analysis; format: subcellular
Sequence (P50750 whole entry): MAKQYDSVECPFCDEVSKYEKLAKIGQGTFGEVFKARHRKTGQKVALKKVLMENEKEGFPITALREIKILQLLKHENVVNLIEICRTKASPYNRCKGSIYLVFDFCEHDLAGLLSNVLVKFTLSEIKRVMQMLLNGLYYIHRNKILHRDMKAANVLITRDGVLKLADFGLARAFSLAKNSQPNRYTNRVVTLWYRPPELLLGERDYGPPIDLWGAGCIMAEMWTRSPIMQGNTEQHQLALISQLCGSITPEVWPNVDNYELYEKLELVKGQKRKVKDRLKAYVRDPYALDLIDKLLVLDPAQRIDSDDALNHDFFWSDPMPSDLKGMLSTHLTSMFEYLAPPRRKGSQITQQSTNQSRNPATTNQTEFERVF

givenSmiles	IC50
CCOc1cc(N2CCC(O)CC2)ccc1Nc1ncc2c(n1)N(C)c1ccccc1C(=O)N2C	> 50 µM

----------
target: Inhibitor of nuclear factor kappa-B kinase subunit beta (Homo sapiens, UniProt O14920); assay: Inhibition of IKKB in human HeLa cells lysate pre incubated for 15 mins followed by ADP acyl phosphate probe addition and measured after 10 mins by LC-MS/MS analysis
Sequence (O14920 whole entry): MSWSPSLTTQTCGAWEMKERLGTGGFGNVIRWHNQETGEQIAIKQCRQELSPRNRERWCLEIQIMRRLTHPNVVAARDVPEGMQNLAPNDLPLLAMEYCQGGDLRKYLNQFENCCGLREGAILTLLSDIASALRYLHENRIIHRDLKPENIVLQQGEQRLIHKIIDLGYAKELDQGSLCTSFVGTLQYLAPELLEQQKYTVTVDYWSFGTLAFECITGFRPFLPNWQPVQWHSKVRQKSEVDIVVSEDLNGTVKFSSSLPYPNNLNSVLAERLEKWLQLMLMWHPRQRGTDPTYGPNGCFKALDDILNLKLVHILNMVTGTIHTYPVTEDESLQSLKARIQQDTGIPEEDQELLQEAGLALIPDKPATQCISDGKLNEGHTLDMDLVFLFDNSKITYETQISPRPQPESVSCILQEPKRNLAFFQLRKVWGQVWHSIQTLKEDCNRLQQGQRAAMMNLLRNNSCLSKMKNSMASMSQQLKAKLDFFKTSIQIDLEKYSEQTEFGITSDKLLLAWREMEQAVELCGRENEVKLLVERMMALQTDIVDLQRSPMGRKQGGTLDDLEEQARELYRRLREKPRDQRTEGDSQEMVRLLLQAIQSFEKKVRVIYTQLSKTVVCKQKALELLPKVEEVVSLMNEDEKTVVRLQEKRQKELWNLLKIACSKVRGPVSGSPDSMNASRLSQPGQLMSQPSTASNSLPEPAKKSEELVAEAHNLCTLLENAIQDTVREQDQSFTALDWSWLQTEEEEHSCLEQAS
pIC50: −log10 of the molar value.
experimentalEndpoint: pIC50

givenSmiles	observedResult
CCOc1cc(N2CCC(O)CC2)ccc1Nc1ncc2c(n1)N(C)c1ccccc1C(=O)N2C	< 4.30

----------
target: UniProt:Q9C0K7; assay: Inhibition of ALS2CR2 in human HeLa cells lysate pre incubated for 15 mins followed by ADP acyl phosphate probe addition and measured after 10 mins by LC-MS/MS analysis
Sequence (Q9C0K7 whole entry): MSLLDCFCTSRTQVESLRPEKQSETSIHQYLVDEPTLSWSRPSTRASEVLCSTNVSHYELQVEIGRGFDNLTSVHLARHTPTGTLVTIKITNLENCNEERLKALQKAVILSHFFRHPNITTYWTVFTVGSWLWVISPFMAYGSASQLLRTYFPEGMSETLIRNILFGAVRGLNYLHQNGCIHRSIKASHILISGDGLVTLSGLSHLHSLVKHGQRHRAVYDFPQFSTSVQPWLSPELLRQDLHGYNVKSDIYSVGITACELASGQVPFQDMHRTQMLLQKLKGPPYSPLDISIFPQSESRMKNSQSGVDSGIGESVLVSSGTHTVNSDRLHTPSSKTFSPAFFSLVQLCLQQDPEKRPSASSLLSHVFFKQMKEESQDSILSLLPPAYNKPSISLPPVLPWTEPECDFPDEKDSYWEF
pIC50: −log10 of the molar value.

givenSmiles	tgt	pIC50
CCOc1cc(N2CCC(O)CC2)ccc1Nc1ncc2c(n1)N(C)c1ccccc1C(=O)N2C	UniProt:Q9C0K7	< 4.30

----------
target: Cyclin-dependent kinase 15 (Homo sapiens, UniProt Q96Q40); test: Inhibition of PFTAIRE2 in human HeLa cells lysate pre incubated for 15 mins followed by ADP acyl phosphate probe addition and measured after 10 mins by LC-MS/MS analysis
Sequence (Q96Q40 whole entry): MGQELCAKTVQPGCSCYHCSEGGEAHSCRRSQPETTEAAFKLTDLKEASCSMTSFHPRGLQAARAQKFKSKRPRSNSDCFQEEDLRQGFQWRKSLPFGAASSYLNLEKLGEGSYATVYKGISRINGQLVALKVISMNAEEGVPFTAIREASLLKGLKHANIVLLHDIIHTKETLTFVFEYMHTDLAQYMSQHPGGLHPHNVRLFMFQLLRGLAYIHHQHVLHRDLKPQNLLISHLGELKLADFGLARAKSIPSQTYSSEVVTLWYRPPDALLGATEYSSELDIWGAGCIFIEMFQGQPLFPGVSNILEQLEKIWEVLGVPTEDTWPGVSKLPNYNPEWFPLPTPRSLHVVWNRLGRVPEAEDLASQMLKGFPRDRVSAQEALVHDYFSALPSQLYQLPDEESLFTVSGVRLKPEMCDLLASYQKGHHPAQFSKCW

givenSmiles	IC50
CCOc1cc(N2CCC(O)CC2)ccc1Nc1ncc2c(n1)N(C)c1ccccc1C(=O)N2C	> 50 µM

----------
Biological target: Serine/threonine-protein kinase 4 (Homo sapiens)
Sequence (Q13043 whole entry): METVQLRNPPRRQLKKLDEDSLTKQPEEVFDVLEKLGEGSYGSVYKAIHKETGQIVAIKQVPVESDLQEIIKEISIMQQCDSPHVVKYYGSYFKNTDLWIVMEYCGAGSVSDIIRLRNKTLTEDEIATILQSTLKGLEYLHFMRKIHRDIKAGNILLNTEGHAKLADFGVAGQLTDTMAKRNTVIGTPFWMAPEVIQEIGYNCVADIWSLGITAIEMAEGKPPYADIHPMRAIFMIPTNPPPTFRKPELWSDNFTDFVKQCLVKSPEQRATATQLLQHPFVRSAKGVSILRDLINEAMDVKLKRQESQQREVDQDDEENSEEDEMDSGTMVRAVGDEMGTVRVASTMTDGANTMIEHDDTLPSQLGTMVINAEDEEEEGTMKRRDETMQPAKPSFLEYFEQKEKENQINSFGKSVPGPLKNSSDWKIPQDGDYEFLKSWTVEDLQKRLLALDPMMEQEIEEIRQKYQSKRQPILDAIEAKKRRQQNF
Assay: Inhibition of MST1 in human HeLa cells lysate pre incubated for 15 mins followed by ATP acyl phosphate probe addition and measured after 10 mins by LC-MS/MS analysis
Format: subcellular
pIC50: −log10 of the molar value.

givenSmiles	tgt	pIC50
CCOc1cc(N2CCC(O)CC2)ccc1Nc1ncc2c(n1)N(C)c1ccccc1C(=O)N2C	Serine/threonine-protein kinase 4 (Homo sapiens)	< 4.30
